Value source: the supplement of paper PMC7125110

B1: glmS ribozyme (parent)
chain: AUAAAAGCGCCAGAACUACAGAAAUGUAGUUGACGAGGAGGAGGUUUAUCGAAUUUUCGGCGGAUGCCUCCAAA

variants of: B1; assay: self-cleavage kobs at 10000 uM GlcN6P; higher = faster cleavage; RNA array; details: with glucosamine-6-phosphate
Fewer inactive variants are shown than the library holds.
parameter_measured: self-cleavage kobs at 10000 uM GlcN6P (s⁻¹)
Please respond with the number in s⁻¹ and leave the unit unwritten.

Past entries and their recorded results:
C16A C68U: 8.53e-05
A48U U55A: 0.000532

State the recorded self-cleavage kobs at 10000 uM GlcN6P for this entry: U30A U47C 0.000396

State the recorded self-cleavage kobs at 10000 uM GlcN6P for this entry: G40C C71U 0.00384

State the recorded self-cleavage kobs at 10000 uM GlcN6P for this entry: G29C C58G 4.93e-05
